compounds and their reported TGI
- Tested on: SK-MEL-5 melanoma
- ASSAY INFO: NCI tumour cell line growth inhibition, 48 h

COC(=O)C(CC(=O)c1cc2c(cc1I)OCO2)Cc1cc(OC)c(OC)c(OC)c1I (configuration not stated)	> 100 µM
O=C1CCC(NC(=O)c2ccccc2)C(=O)N1 (configuration not stated)	> 100 µM
Cn1cc(C2=C(c3ccc(OC[C@@H](O)CO)cc3)C(=O)NC2=O)c2ccccc21	> 25 µM
COc1cc2c(cc1OC)C(=O)/C(=C/c1cc(C)c(O)c(C)c1)C2	> 100 µM

Q: Test system SK-MEL-5 melanoma; read-out TGI; what value for O=C1CC(c2ccc([N+](=O)[O-])cc2)C2(C(=O)NC(=S)NC2=O)C(c2ccc([N+](=O)[O-])cc2)C1 (configuration not stated) ?
A: 99.1 µM

Q: Give SK-MEL-5 melanoma TGI for OCCNCO
A: > 100 µM
